# ASSAY PROCEDURE: Plasma pharmacokinetics after intraperitoneal injection in mouse (UPLC-MS/MS)
# Format: in vivo
# CONDITION LABEL: male, ICR, plasma; mouse, IP 10 mg/kg; read-out: mean residence time (MRT)(0-t)
# Experimental: Positive control drug 4-butyl-α-agarofuran preparation (BAF) and Compound 2 preparation were administered intraperitoneally at a dose of 10 mg/kg/10 ml (calculated according to the crude drug), and a suspension was prepared by ultrasonic grinding with double distilled water. Male ICR mice, with a weight of 21-24 g, were purchased from SPF (Beijing) Biotechnology Co., Ltd. […]
QUANTITY KIND: MRT (h)

>>> df
                                   compound  quantity_kind  observed_measurement
0  CCCCC1=CCC[C@@]2(C)CC[C@@H]3C[C@]12OC3(C)C [BAF, 4-butyl-α-agarofuran, reference compound]            MRT                  1.05
1  CC1(C)O[C@]23C[C@H]1CC[C@]2(C)CCC=C3CCCC(F)(F)F            MRT                  1.32
